Assay: Hygroscopic behavior test by dynamic vapor sorption (DVS)
Type: physicochemical
Conditions: relative humidity 50.0 %, 25° C., DVS
Structures can show the parent of a compound that is named as a salt.
Exercise: state measured Hygroscopic weight gain % for each of the molecules provided.
Enter your answer as a number in %; do not include the unit.

Q) Fill blank: measured Hygroscopic weight gain % of the molecule Cc1nc(NC(=O)N2CCC(C)(C)C2=O)ccc1Oc1ccnc(-c2cnn(C)c2)c1 [Hydrochloride crystalline form I] is ____.
A) 0.52

Q) Fill blank: measured Hygroscopic weight gain % of the molecule Cc1nc(NC(=O)N2CCC(C)(C)C2=O)ccc1Oc1ccnc(-c2cnn(C)c2)c1 [Phosphate crystalline form I] is ____.
A) 3.37

Q) Fill blank: measured Hygroscopic weight gain % of the molecule Cc1nc(NC(=O)N2CCC(C)(C)C2=O)ccc1Oc1ccnc(-c2cnn(C)c2)c1 [Methanesulfonate crystalline form II] is ____.
A) 0.31

Q) Fill blank: measured Hygroscopic weight gain % of the molecule Cc1nc(NC(=O)N2CCC(C)(C)C2=O)ccc1Oc1ccnc(-c2cnn(C)c2)c1 [Tartrate crystalline form I] is ____.
A) 3.32
